- Assayed system: adenosine uptake sites in rat brain membranes (Rattus norvegicus, UniProt O54698)
- Sequence (O54698 1-457): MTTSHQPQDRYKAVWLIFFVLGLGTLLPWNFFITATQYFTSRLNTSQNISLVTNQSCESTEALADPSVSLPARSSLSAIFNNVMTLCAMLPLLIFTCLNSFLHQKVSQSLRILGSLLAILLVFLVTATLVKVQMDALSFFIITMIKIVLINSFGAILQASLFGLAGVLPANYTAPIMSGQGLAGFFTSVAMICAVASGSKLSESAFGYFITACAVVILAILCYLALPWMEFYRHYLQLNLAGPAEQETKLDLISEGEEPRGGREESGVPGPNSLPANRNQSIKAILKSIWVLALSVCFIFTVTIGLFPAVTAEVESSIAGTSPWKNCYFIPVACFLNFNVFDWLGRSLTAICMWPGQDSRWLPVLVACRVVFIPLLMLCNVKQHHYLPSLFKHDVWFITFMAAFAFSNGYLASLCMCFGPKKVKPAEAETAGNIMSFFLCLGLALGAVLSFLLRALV
- Assay protocol: Competition for [3H]NBTI binding at adenosine uptake sites in rat striatal membranes
- Condition summary: read-out: Ki (NBTI); 0.3 nM [3H]NBTI, 30 min at 23° C., pH 7.4
Measurement label: pKi
Answers are plain numbers, as −log10 of the molar value.

Example entries begin here.
{"Molecule": "CNC(=O)[C@H]1O[C@@H](n2cnc3c(NCc4cccc(I)c4)nc(Cl)nc32)[C@H](O)[C@@H]1O", "Measured number": 4.82}
{"Molecule": "CNC(=O)[C@H]1O[C@@H](n2cnc3c(NCc4cccc(I)c4)ncnc32)[C@H](O)[C@@H]1O", "Measured number": 4.55}
{"Molecule": "OC[C@H]1O[C@@H](n2cnc3c(NCc4ccccc4)ncnc32)[C@H](O)[C@@H]1O [Compound 7, N^6 -benzyladenosine, reference compound]", "Measured number": 6.69}

Exercise: Please report the recorded pKi for CNC(=O)[C@H]1O[C@@H](n2cnc3c(NCc4cccc(I)c4)nc(SC)nc32)[C@H](O)[C@@H]1O .
Key: 4.31

* * *

- Assayed system: rat brain A1 receptors (Rattus norvegicus)
- Sequence (P25099 1-326): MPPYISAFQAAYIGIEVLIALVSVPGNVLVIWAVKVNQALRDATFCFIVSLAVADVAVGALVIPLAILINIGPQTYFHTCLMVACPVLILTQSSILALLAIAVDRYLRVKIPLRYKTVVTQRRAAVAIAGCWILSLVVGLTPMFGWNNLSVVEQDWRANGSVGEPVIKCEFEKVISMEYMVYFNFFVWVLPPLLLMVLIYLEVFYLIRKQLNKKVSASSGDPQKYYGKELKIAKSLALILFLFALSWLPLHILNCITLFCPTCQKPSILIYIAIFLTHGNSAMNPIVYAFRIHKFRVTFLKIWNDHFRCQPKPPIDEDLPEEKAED
Measurement label: IC50 (nM)
Answers are plain numbers, in nM.

Exercise: What measured IC50 is associated with Nc1ccc(CCNc2ncnc3c2ncn3[C@@H]2O[C@H](CO)[C@@H](O)[C@H]2O)cc1I [[^125 I]APNEA] on rat brain A1 receptors (Rattus norvegicus)?
Key: 2.1

* * *

- Assayed system: A2 receptors from rat striatal membranes (Rattus norvegicus, UniProt P30543)
- Construct: Rat cerebral cortical and striatal membranes were prepared; from tissue; host or cells: rat striatal membranes
- Sequence (P30543 whole entry): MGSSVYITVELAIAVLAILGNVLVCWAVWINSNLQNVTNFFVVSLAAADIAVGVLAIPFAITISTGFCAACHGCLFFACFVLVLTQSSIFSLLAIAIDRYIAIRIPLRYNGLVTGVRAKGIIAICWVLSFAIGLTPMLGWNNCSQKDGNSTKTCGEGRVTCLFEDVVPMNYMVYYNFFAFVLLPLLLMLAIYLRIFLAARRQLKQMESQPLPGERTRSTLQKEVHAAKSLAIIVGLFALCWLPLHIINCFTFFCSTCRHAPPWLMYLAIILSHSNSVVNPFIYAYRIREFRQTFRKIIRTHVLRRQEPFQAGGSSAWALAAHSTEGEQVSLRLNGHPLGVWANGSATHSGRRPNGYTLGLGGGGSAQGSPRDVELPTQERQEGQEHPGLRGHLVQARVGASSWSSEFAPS
- Assay protocol: Radioligand binding at A2 (A2a) receptors, displacement of [3H]CGS 21680 (or [3H]NECA with 50 nM CPA) from rat striatal membranes
- Condition summary: rat striatal membranes, displacement of [3H]CGS 21680 (or [3H]NECA + 50 nM CPA); read-out: A2 affinity Ki
Measurement label: Ki
Put down the number, then write its unit next to it.

Example entries begin here.
{"Compound": "CCNC(=O)[C@H]1O[C@@H](n2cnc3c(NCc4cccc(F)c4)ncnc32)[C@H](O)[C@@H]1O", "Ki": "0.032 µM"}
{"Compound": "CCNC(=O)[C@H]1O[C@@H](n2cnc3c(NCc4cccc([N+](=O)[O-])c4)ncnc32)[C@H](O)[C@@H]1O", "Ki": "0.035 µM"}
{"Compound": "Nc1nc(SCc2ccc([N+](=O)[O-])cc2)c2ncn([C@@H]3O[C@H](CO)[C@@H](O)[C@H]3O)c2n1 [Compound 87, (4-nitrobenzyl)-6-thioguanosine, reference compound]", "Ki": "48.5 µM"}
{"Compound": "CCNC(=O)[C@H]1O[C@@H](n2cnc3c(NCc4ccccc4[N+](=O)[O-])ncnc32)[C@H](O)[C@@H]1O", "Ki": "0.024 µM"}
{"Compound": "Cn1c(=O)c2c(ncn2CCO)n(C)c1=O [Compound 116, 7-β-hydroxyethylT, reference compound]", "Ki": "17.4 µM"}

Now for a further compound.
Exercise: Please report the recorded Ki for CNC(=O)[C@H]1O[C@@H](n2cnc3c(NCc4cccc([N+](=O)[O-])c4)ncnc32)[C@H](O)[C@@H]1O .
Key: 0.441 µM

* * *

- Assayed system: A1 receptors from rat brain membranes (Rattus norvegicus, UniProt P25099)
- Construct: Rat cerebral cortical and striatal membranes were prepared; from tissue; host or cells: rat brain (cerebral cortical) membranes
- Assay protocol: biochemical
- Type: binding
- Condition summary: rat brain membranes, displacement of [3H]PIA (or [3H]CHA); read-out: A1 affinity Ki
Measurement label: pKi
Give bare numbers, as −log10 of the molar value.

Example entries begin here.
{"Compound": "CCNC(=O)[C@H]1O[C@@H](n2cnc3c(NCc4ccccc4)ncnc32)[C@H](O)[C@@H]1O [Compound 28, N^6-benzyladenosine-5'-N-ethyluronamide]", "pKi": 7.06}
{"Compound": "CCNC(=O)[C@H]1O[C@@H](n2cnc3c(NCc4cccc(I)c4)ncnc32)[C@H](O)[C@@H]1O", "pKi": 8.11}
{"Compound": "CCCCn1c(=O)c2c(ncn2[C@@H]2O[C@H](C(N)=O)[C@@H](O)[C@H]2O)n(CCCC)c1=O", "pKi": 5.53}
{"Compound": "CCNC(=O)[C@H]1O[C@@H](n2cnc3c(=N)n(Cc4ccc([N+](=O)[O-])cc4)cnc32)[C@H](O)[C@@H]1O", "pKi": 6.47}
{"Compound": "CCCn1c(=S)[nH]c(=O)c2[nH]cnc21 [Compound 114, 2-thio-3-propylX, reference compound]", "pKi": 4.58}
{"Compound": "CCCCn1c(=O)c2c(ncn2[C@@H]2O[C@H](C(=O)NCC)[C@@H](O)[C@H]2O)n(CCCC)c1=O", "pKi": 5.12}
{"Compound": "Nc1nc2c(ncn2[C@@H]2O[C@H](CO)[C@@H](O)[C@H]2O)c(=O)[nH]1 [Compound 86, guanosine, reference compound]", "pKi": 4.56}
{"Compound": "CCNC(=O)[C@H]1O[C@@H](n2cnc3c(NCc4cccc(OC)c4)ncnc32)[C@H](O)[C@@H]1O", "pKi": 7.16}

Value sought for every listed compound: pKi.
1. OC[C@H]1O[C@@H](n2cnc3c(O)ncnc32)[C@H](O)[C@@H]1O [Compound 85, inosine, reference compound]
2. CC(C)CSC[C@H]1O[C@@H](n2cnc3c(N)ncnc32)[C@H](O)[C@@H]1O [Compound 76, 5'-deoxy-5'-isobutylthio adenosine, reference compound]
3. CCNC(=O)[C@H]1O[C@@H](n2cnc3c(=N)n(Cc4ccccc4[N+](=O)[O-])cnc32)[C@H](O)[C@@H]1O

Key:
1. 4.78
2. 5.94
3. 6.71

* * *

- Assayed system: A1 receptors from rat brain membranes (Rattus norvegicus, UniProt P25099)
- Construct: Rat cerebral cortical and striatal membranes were prepared; from tissue; host or cells: rat brain (cerebral cortical) membranes
- Assay protocol: biochemical
- Format: binding
- Condition summary: rat brain membranes, displacement of [3H]PIA (or [3H]CHA); read-out: A1 affinity Ki
I'd be grateful if you could share measured pKi for these entries.
Answers are plain numbers, as −log10 of the molar value.

Example entries begin here.
{"Molecule": "Nc1nc(SCc2ccc([N+](=O)[O-])cc2)c2ncn([C@@H]3O[C@H](CO)[C@@H](O)[C@H]3O)c2n1 [Compound 87, (4-nitrobenzyl)-6-thioguanosine, reference compound]", "Measured number": 4.82}
{"Molecule": "CCCCCCn1c(=O)c2[nH]cnc2n(CCCCCC)c1=O [Compound 110, 1,3-dihexylX, reference compound]", "Measured number": 5.90}

Now for a further molecule.
Exercise: What measured pKi is associated with CCNC(=O)[C@H]1O[C@@H](n2cnc3c(NCc4ccccc4[N+](=O)[O-])ncnc32)[C@H](O)[C@@H]1O [Compound 61] on A1 receptors from rat brain membranes (Rattus norvegicus, UniProt P25099)?
Key: 7.51
